- System tested: T1, PlGF (Human PlGF / PGF (19-149) Protein, His Tag, Acrobiosystems PGF-H52H5) (human, UniProt P49763-2 19-149)
- T1 sequence: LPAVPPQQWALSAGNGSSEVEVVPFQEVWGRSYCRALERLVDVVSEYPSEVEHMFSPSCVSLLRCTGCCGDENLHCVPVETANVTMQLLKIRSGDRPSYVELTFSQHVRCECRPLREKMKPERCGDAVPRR
- Assay explanation: BLI; kon 1.772e4 1/Ms; koff 2.049e-1 1/s; BLI (Octet R4, anti-penta-His HIS1K sensors): protein loaded in phosphate buffer pH 7.4 (PlGF 2.5 ug/mL, VEGF 10 ug/mL); aptamers 0-20 uM in 1X Sartorius Kinetics Buffer; 1:1 global fit, triplicate; temperature not stated
- Cond: protein: commercial; tags: His; chain copies: 2
Quantity name: pKd
pKd is defined as minus the log10 of a concentration measured in mol/L.

-- ask Dear colleague, please send me the reported pKd for ACAGGCACA (ssRNA) [PlGF-Apt2] when you can.
-- reply 4.75
